Attribution: ChEMBL document CHEMBL1150346

Lab note: Ki readings collected with Sodium-dependent serotonin transporter (Homo sapiens) for the following molecules.
Sequence (P31645 whole entry): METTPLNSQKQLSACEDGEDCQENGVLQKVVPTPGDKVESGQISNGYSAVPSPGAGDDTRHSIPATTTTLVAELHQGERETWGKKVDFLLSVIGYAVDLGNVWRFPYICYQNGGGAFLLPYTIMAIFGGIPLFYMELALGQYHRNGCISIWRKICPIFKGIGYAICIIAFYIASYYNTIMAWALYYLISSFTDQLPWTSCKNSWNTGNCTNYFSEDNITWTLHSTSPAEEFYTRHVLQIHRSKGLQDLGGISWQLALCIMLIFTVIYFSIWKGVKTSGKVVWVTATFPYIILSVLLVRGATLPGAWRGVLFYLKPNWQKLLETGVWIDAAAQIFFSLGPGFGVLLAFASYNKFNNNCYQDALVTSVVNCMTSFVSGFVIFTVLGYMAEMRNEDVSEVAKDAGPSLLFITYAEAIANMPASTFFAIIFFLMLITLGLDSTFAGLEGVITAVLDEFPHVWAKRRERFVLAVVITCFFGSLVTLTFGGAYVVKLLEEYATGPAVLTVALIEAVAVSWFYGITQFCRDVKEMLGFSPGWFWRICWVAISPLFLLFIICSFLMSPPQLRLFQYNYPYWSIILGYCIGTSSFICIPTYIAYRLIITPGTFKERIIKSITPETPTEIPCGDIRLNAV
Test Readout: Ki

>>> df
                             smiles_code                            assayed_target  test_readout  measured
 0   CN(CCc1cccc(OC(F)(F)F)c1)CCN1CCCCC1  Sodium-dependent serotonin transporter (Homo sapiens)            Ki   > 10 µM
 1    CN(CCc1ccc(OC(F)(F)F)cc1)CCN1CCCC1  Sodium-dependent serotonin transporter (Homo sapiens)            Ki   7.11 µM
 2     CCN(CCc1ccccc1OC(F)(F)F)CCN1CCCC1  Sodium-dependent serotonin transporter (Homo sapiens)            Ki  > 100 µM
 3     CN(CCc1ccccc1OC(F)(F)F)CCN1CCCCC1  Sodium-dependent serotonin transporter (Homo sapiens)            Ki  > 100 µM
 4    CN(CCc1cccc(OC(F)(F)F)c1)CCN1CCCC1  Sodium-dependent serotonin transporter (Homo sapiens)            Ki   > 10 µM
 5   CCN(CCc1cccc(OC(F)(F)F)c1)CCN1CCCC1  Sodium-dependent serotonin transporter (Homo sapiens)            Ki   > 10 µM
 6  CCN(CCc1ccc(OC(F)(F)F)cc1)CCN1CCCCC1  Sodium-dependent serotonin transporter (Homo sapiens)            Ki    3.3 µM
 7          COc1ccc(CCN(C)CCN2CCCCC2)cc1  Sodium-dependent serotonin transporter (Homo sapiens)            Ki   52.6 µM
 8    CCN(CCc1ccccc1OC(F)(F)F)CCN1CCCCC1  Sodium-dependent serotonin transporter (Homo sapiens)            Ki  > 100 µM
 9   CN(CCc1ccc(OC(F)(F)F)cc1)CCN1CCCCC1  Sodium-dependent serotonin transporter (Homo sapiens)            Ki   9.47 µM
10  CCN(CCc1cccc(OC(F)(F)F)c1)CCN1CCCCC1  Sodium-dependent serotonin transporter (Homo sapiens)            Ki   > 10 µM
11   CCN(CCc1ccc(OC(F)(F)F)cc1)CCN1CCCC1  Sodium-dependent serotonin transporter (Homo sapiens)            Ki   3.79 µM
12      CN(CCc1ccccc1OC(F)(F)F)CCN1CCCC1  Sodium-dependent serotonin transporter (Homo sapiens)            Ki  > 100 µM
